Tested on: HSV-1
assay_text: HSV Antiviral (ELISA) Assay
Format: cell-based, herpes simplex virus type 1
assay_context: Human alphaherpesvirus 1, Vero, Vero cells, HSV-1; read-out: IC50 Ug/ml HSV
Experimental: Vero cells (ATCC #CCL-81) are plated on 96-well tissue culture plates at 3.5×10^4 cells per 100 μl tissue culture DMEM (Dulbecco's modified Eagle media) supplemented with 2% fetal bovine serum (FBS) in each well. After overnight incubation @ 37° C. […] Antiviral activity (IC50) of the test compound is determined by comparing the flourescence obtained in absence of compound to that obtained in the presence of compound.
measure_name: IC50

// solved cases for IC50 follow
{"columns": ["smiles_code", "IC50"],
 "data": [
  ["CC(=O)Nc1ccc(NC(=S)Nc2cccc(Cl)c2Cl)cc1", "> 10 µg/mL"],
  ["COc1cc(OC)c(NC(=S)Nc2ccc(NC(C)=O)c(OC)c2)cc1Cl", "5 µg/mL"],
  ["CC(=O)Nc1ccc(NC(=S)Nc2cc(C)c(O)c(Cl)c2)cc1", "15 µg/mL"],
  ["COc1ccc(NC(=S)Nc2ccc(NC(C)=O)cc2)c(NCc2ccccc2)c1", "> 10 µg/mL"]
]}

# ---- query compound ----
So what does the record say about IC50 for "CCCCOc1c(Cl)cc(NC(=S)Nc2ccc(NC(C)=O)cc2)cc1Cl" ?
> 50 µg/mL
